Tested on: A549 lung cancer cells
EXPERIMENT: MTT cell viability, 72 h, dark or 458 nm irradiation
Assay type: cell-based, human
SETUP_CONDITIONS: GI50 non-irradiated / GI50 irradiated
Give PI A549 for every item shown.
When you answer, write just the number.

Entry under review: "CC(C)C[n+]1ccn2[c]1[Ir-3]13([c]4ccccc4-c4cccc[n+]41)([c]1ccccc1-c1cccc[n+]13)[c]1n(cc[n+]1CC(C)C)C2.F[P-](F)(F)(F)(F)F" . Reported PI A549?
4.2

Bench note: what PI A549 did "F[P-](F)(F)(F)(F)F.c1ccc(C[n+]2ccn3[c]2[Ir-3]24([c]5ccccc5-c5cccc[n+]52)([c]2ccccc2-c2cccc[n+]24)[c]2n(cc[n+]2Cc2ccccc2)C3)cc1" show?
2.4

// lookup PI A549 for "CSc1ccc(-[n+]2ccn3[c]2[Ir-3]24([c]5ccccc5-c5cccc[n+]52)([c]2ccccc2-c2cccc[n+]24)[c]2n(cc[n+]2-c2ccc(SC)cc2)C3)cc1.F[P-](F)(F)(F)(F)F"
2.4

Dear colleague, I am looking for the recorded PI A549 of the following compound: "CC(C)[n+]1ccn2[c]1[Ir-3]13([c]4ccccc4-c4cccc[n+]41)([c]1ccccc1-c1cccc[n+]13)[c]1n(cc[n+]1C(C)C)C2.F[P-](F)(F)(F)(F)F"
3.3

* * *

EXPERIMENT: Photophysical measurements (emission, quantum yield, lifetime) in CH2Cl2
Format: physicochemical
SETUP_CONDITIONS: CH2Cl2, 298 K, references POPOP and quinine sulfate
ATTRIBUTE_MEASURED: ΦPL emission quantum yield (%)
Numeric answer only, unit % assumed.

What ΦPL emission quantum yield value was documented for this molecule, "CC(C)C[n+]1ccn2[c]1[Ir-3]13([c]4ccccc4-c4cccc[n+]41)([c]1ccccc1-c1cccc[n+]13)[c]1n(cc[n+]1CC(C)C)C2.F[P-](F)(F)(F)(F)F" ?
1.6

Reported ΦPL emission quantum yield, molecule "CSc1ccc(-[n+]2ccn3[c]2[Ir-3]24([c]5ccccc5-c5cccc[n+]52)([c]2ccccc2-c2cccc[n+]24)[c]2n(cc[n+]2-c2ccc(SC)cc2)C3)cc1.F[P-](F)(F)(F)(F)F" : ____
1.1

Suppose we examine the molecule "CC(C)C[n+]1ccn2[c]1[Ir-3]13([c]4ccccc4-c4cccc[n+]41)([c]1ccccc1-c1cccc[n+]13)[c]1n(cc[n+]1CC(C)C)CC2.F[P-](F)(F)(F)(F)F" ; what ΦPL emission quantum yield value has been reported?
0.2

* * *

EXPERIMENT: Octanol–water partition coefficient, shake-flask method
Type: physicochemical
SETUP_CONDITIONS: n-octanol/water, UV absorbance 260 nm
Please go through the items and note down their Log P.
Give only the figure.

Which Log P is reported for this molecule? F[P-](F)(F)(F)(F)F.c1ccc(C[n+]2ccn3[c]2[Ir-3]24([c]5ccccc5-c5cccc[n+]52)([c]2ccccc2-c2cccc[n+]24)[c]2n(cc[n+]2Cc2ccccc2)C3)cc1 [Complex 4c]
0.581

Name the recorded Log P for CC(C)C[n+]1ccn2[c]1[Ir-3]13([c]4ccccc4-c4cccc[n+]41)([c]1ccccc1-c1cccc[n+]13)[c]1n(cc[n+]1CC(C)C)CC2.F[P-](F)(F)(F)(F)F [Complex 4f] .
0.519

Give the measured Log P of F[P-](F)(F)(F)(F)F.c1ccc(C[n+]2ccn3[c]2[Ir-3]24([c]5ccccc5-c5cccc[n+]52)([c]2ccccc2-c2cccc[n+]24)[c]2n(cc[n+]2Cc2ccccc2)CC3)cc1 [Complex 4e] .
0.847

Log P for CC(C)C[n+]1ccn2[c]1[Ir-3]13([c]4ccccc4-c4cccc[n+]41)([c]1ccccc1-c1cccc[n+]13)[c]1n(cc[n+]1CC(C)C)C2.F[P-](F)(F)(F)(F)F [Complex 4b] ?
0.842

Any idea what Log P was measured for CSc1ccc(-[n+]2ccn3[c]2[Ir-3]24([c]5ccccc5-c5cccc[n+]52)([c]2ccccc2-c2cccc[n+]24)[c]2n(cc[n+]2-c2ccc(SC)cc2)C3)cc1.F[P-](F)(F)(F)(F)F [Complex 4d] ?
0.035

* * *

Tested on: A549 lung cancer cells
EXPERIMENT: MTT cell viability, 72 h, dark or 458 nm irradiation
Type: cell-based, human
SETUP_CONDITIONS: blue light; GI50 MC3T3 / GI50 A549
ATTRIBUTE_MEASURED: SI vs MC3T3, A549 Blue

Any idea what SI vs MC3T3, A549 Blue was measured for CC(C)[n+]1ccn2[c]1[Ir-3]13([c]4ccccc4-c4cccc[n+]41)([c]1ccccc1-c1cccc[n+]13)[c]1n(cc[n+]1C(C)C)C2.F[P-](F)(F)(F)(F)F [Complex 4a] ?
16.3

Item CC(C)C[n+]1ccn2[c]1[Ir-3]13([c]4ccccc4-c4cccc[n+]41)([c]1ccccc1-c1cccc[n+]13)[c]1n(cc[n+]1CC(C)C)C2.F[P-](F)(F)(F)(F)F [Complex 4b] has what recorded SI vs MC3T3, A549 Blue?
8.4

Fill in the blank: the reported SI vs MC3T3, A549 Blue of F[P-](F)(F)(F)(F)F.c1ccc(C[n+]2ccn3[c]2[Ir-3]24([c]5ccccc5-c5cccc[n+]52)([c]2ccccc2-c2cccc[n+]24)[c]2n(cc[n+]2Cc2ccccc2)C3)cc1 [Complex 4c] is ____.
7.8

Entry CSc1ccc(-[n+]2ccn3[c]2[Ir-3]24([c]5ccccc5-c5cccc[n+]52)([c]2ccccc2-c2cccc[n+]24)[c]2n(cc[n+]2-c2ccc(SC)cc2)C3)cc1.F[P-](F)(F)(F)(F)F [Complex 4d] : reported SI vs MC3T3, A549 Blue = ?
2.9

* * *

System: HeLa cervix cancer cells
EXPERIMENT: MTT cell viability, 72 h, dark or 458 nm irradiation
Type: cell-based, human
SETUP_CONDITIONS: dark; GI50 NIH-3T3 / GI50 HeLa
ATTRIBUTE_MEASURED: SI vs NIH, HeLa Dark
Lab note: jot the number down without any unit.

Would you mind telling me what SI vs NIH, HeLa Dark value was observed for CC(C)C[n+]1ccn2[c]1[Ir-3]13([c]4ccccc4-c4cccc[n+]41)([c]1ccccc1-c1cccc[n+]13)[c]1n(cc[n+]1CC(C)C)C2.F[P-](F)(F)(F)(F)F [Complex 4b] ?
3.1

Please give the measured SI vs NIH, HeLa Dark for this molecule: CSc1ccc(-[n+]2ccn3[c]2[Ir-3]24([c]5ccccc5-c5cccc[n+]52)([c]2ccccc2-c2cccc[n+]24)[c]2n(cc[n+]2-c2ccc(SC)cc2)C3)cc1.F[P-](F)(F)(F)(F)F [Complex 4d]
1.5

Returns the measured SI vs NIH, HeLa Dark for the input molecule. Input: F[P-](F)(F)(F)(F)F.c1ccc(C[n+]2ccn3[c]2[Ir-3]24([c]5ccccc5-c5cccc[n+]52)([c]2ccccc2-c2cccc[n+]24)[c]2n(cc[n+]2Cc2ccccc2)C3)cc1 [Complex 4c]
5.5

Field request: SI vs NIH, HeLa Dark | item: CC(C)[n+]1ccn2[c]1[Ir-3]13([c]4ccccc4-c4cccc[n+]41)([c]1ccccc1-c1cccc[n+]13)[c]1n(cc[n+]1C(C)C)C2.F[P-](F)(F)(F)(F)F [Complex 4a]
2.8

* * *

Tested on: A549 lung cancer cells
EXPERIMENT: MTT cell viability, 72 h, dark or 458 nm irradiation
Type: cell-based, human
SETUP_CONDITIONS: dark, 72 h, MTT; read-out: GI50 A549 Dark
ATTRIBUTE_MEASURED: GI50 (nM)
Respond with the bare value in nM.

For the compound "CC(C)C[n+]1ccn2[c]1[Ir-3]13([c]4ccccc4-c4cccc[n+]41)([c]1ccccc1-c1cccc[n+]13)[c]1n(cc[n+]1CC(C)C)C2.F[P-](F)(F)(F)(F)F" , what GI50 is on record?
354

Sample "CSc1ccc(-[n+]2ccn3[c]2[Ir-3]24([c]5ccccc5-c5cccc[n+]52)([c]2ccccc2-c2cccc[n+]24)[c]2n(cc[n+]2-c2ccc(SC)cc2)C3)cc1.F[P-](F)(F)(F)(F)F" — what was its GI50?
1510

Would you kindly share the measured GI50 for "F[P-](F)(F)(F)(F)F.c1ccc(C[n+]2ccn3[c]2[Ir-3]24([c]5ccccc5-c5cccc[n+]52)([c]2ccccc2-c2cccc[n+]24)[c]2n(cc[n+]2Cc2ccccc2)C3)cc1" ?
407

Look up GI50: "CC(C)[n+]1ccn2[c]1[Ir-3]13([c]4ccccc4-c4cccc[n+]41)([c]1ccccc1-c1cccc[n+]13)[c]1n(cc[n+]1C(C)C)C2.F[P-](F)(F)(F)(F)F"
355

* * *

Kindly state SI vs NIH, PC-3 Dark for each of the entries shown.
Test system: PC-3 prostate cancer cells
EXPERIMENT: MTT cell viability, 72 h, dark or 458 nm irradiation
Type: cell-based, human
SETUP_CONDITIONS: dark; GI50 NIH-3T3 / GI50 PC-3

Request the reported SI vs NIH, PC-3 Dark associated with "F[P-](F)(F)(F)(F)F.c1ccc(C[n+]2ccn3[c]2[Ir-3]24([c]5ccccc5-c5cccc[n+]52)([c]2ccccc2-c2cccc[n+]24)[c]2n(cc[n+]2Cc2ccccc2)C3)cc1"
8.1

Given the entry "CC(C)[n+]1ccn2[c]1[Ir-3]13([c]4ccccc4-c4cccc[n+]41)([c]1ccccc1-c1cccc[n+]13)[c]1n(cc[n+]1C(C)C)C2.F[P-](F)(F)(F)(F)F" , report its measured SI vs NIH, PC-3 Dark.
15.8

I am curious: what SI vs NIH, PC-3 Dark value has been reported for "CC(C)C[n+]1ccn2[c]1[Ir-3]13([c]4ccccc4-c4cccc[n+]41)([c]1ccccc1-c1cccc[n+]13)[c]1n(cc[n+]1CC(C)C)C2.F[P-](F)(F)(F)(F)F" ?
7.6
